- Study Target: c-Met kinase domain recombinant protein (Homo sapiens, UniProt P08581)
- Construct: 50 μL diluted solution of c-Met kinase domain recombinant protein in reaction buffer was added to initiate the reaction
- Sequence (P08581 1078-1345 limits assumed): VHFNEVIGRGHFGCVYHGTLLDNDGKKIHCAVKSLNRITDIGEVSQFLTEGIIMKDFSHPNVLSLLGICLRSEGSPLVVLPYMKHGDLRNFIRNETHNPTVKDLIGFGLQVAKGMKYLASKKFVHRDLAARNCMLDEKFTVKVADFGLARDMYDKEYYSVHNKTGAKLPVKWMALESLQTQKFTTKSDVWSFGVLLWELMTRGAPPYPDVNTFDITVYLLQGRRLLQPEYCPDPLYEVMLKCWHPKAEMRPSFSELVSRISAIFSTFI
- Method Notes: biochemical
- Stated Conditions: read-out: Average inhibition rate at 0.1 μM (%)
Outcome Measure: inhibition at 0.1 µM (%)

Solved cases (5 shown):
>>> endpoint_result("CCN1CCC(n2cc(-c3cnc4cnn(S(=O)(=O)c5cnc6ccccn56)c4c3)cn2)CC1")
67.5
>>> endpoint_result("CC(C)(C)OC(=O)N1CCC(n2cc(-c3cnc4cnn(S(=O)(=O)c5cnc6ccc(-c7cnn(C8CCN(C(=O)OC(C)(C)C)CC8)c7)nn56)c4c3)cn2)CC1")
73.2
>>> endpoint_result("CN(C)C(=O)c1ccc(-c2cnc3cnn(S(=O)(=O)c4cnc5ccccn45)c3c2)cc1")
45.1
>>> endpoint_result("CCC(=O)Nc1cnc2cnn(S(=O)(=O)c3cnc4ccc(Br)cn34)c2c1")
92.1
>>> endpoint_result("Cn1cc(-c2cnc3cnn(S(=O)(=O)c4cnc5ccc(-c6ccc(CN7CCOCC7)cc6)cn45)c3c2)cn1")
77.3

(P) Cn1cc(-c2cnc3cnn(S(=O)(=O)c4cnc5ccc(-c6ccc(F)cc6F)cn45)c3c2)cn1
(Q) O=S(=O)(c1cnc2ccccn12)n1ncc2ncc(-c3ccsc3)cc21
Select one: P or Q . Criterion: greater recorded inhibition at 0.1 µM. Pick one and reply with its label. Q
(Q: 55.7%, P: 33.8%)
